Task for the reader: assign each of the following molecules its reported IC50.
- TARGET_OR_TEST_SYSTEM: HSV-1 ribonucleotide reductase (Human herpesvirus 1)
- Sequence (P08543 whole entry): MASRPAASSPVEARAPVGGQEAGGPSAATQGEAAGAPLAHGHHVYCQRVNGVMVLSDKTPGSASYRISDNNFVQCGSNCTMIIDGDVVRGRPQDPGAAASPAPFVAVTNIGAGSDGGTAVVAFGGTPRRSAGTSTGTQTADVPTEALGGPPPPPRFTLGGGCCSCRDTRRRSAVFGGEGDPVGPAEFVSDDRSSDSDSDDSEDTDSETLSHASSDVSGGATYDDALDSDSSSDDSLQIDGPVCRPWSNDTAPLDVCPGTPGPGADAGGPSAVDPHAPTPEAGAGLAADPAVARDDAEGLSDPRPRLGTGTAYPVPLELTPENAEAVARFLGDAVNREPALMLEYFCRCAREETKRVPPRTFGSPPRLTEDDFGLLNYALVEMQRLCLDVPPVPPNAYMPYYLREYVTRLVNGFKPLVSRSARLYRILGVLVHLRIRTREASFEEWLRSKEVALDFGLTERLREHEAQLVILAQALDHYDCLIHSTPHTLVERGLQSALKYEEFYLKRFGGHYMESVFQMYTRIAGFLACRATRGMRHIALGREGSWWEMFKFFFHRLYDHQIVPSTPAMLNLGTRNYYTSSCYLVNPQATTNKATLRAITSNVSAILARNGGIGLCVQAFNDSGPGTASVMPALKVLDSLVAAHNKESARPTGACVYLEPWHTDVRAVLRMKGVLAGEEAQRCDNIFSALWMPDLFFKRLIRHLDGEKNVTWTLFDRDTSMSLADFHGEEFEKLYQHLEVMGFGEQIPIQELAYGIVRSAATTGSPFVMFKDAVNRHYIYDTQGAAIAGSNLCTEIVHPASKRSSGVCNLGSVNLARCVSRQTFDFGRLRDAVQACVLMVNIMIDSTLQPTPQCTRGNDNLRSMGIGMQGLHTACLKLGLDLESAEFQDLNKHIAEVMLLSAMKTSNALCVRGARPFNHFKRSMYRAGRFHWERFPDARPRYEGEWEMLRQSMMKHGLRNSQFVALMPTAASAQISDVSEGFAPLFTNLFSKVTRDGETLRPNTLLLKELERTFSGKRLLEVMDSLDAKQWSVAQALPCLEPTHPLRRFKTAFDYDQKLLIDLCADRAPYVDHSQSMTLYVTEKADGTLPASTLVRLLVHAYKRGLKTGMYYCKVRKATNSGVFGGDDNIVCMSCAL
Starred links: 1 amine or outer side, 2 acyl side, 3 side chain; linkers in the order of their positions; H or OH if unused. Non-standard residues stand in square brackets, D forms with d. Residues, ends and D or L forms follow the SMILES beside them. *: point of attachment. Ala(1H-tetrazol-5-yl) = N[C@@H](Cc1nnn[nH]1)C(=O)O; X1 = CC(C)[C@@H](C(=O)[*:2])N(CCc1ccccc1)[*:1]; Benzoyl(2-Ph) = O=C(c1ccccc1-c1ccccc1)*; Desaminotyrosyl = O=C(CCc1ccc(O)cc1)*; Butanoyl(4-Ph) = O=C(CCCc1ccccc1)*; Hydrocinnamoyl = O=C(CCc1ccccc1)*; Pentanoyl(4-Me) = CC(C)CCC(=O)*; X3 = CC(C)C[C@H](N*)c1nnn[nH]1; X2 = O=C(c1ccccc1Cc1ccccc1)*; NMeV = CN[C@H](C(=O)O)C(C)C
Answers are plain numbers, in µM.

Task: Quick one: IC50 of CC[C@H](C)[C@H](NC(=O)[C@H](C(C)C)N(C)C(=O)CCc1ccc(O)cc1)C(=O)N[C@@H](CC(N)=O)C(=O)N[C@@H](CC(=O)O)C(=O)N[C@@H](CC(C)C)C(=O)O [DAT / CH3 / CONH2 / COOH, DAT-N-Me-Val-Ile-Asn-Asp-Leu-OH] (Desaminotyrosyl-[NMeV]INDL-OH) ?
Result: 6

Report IC50 for every entry below.
1. CC[C@H](C)[C@H](NC(=O)[C@H](C(C)C)N(C)C(=O)CCCc1ccccc1)C(=O)N[C@@H](CC(N)=O)C(=O)N[C@@H](CC(=O)O)C(=O)N[C@@H](CC(C)C)C(=O)O [PhCH2CH2CH2CO / CH3 / CONH2 / COOH] ({Butanoyl(4-Ph)}-[NMeV]INDL-OH)
2. CC[C@H](C)[C@H](NC(=O)[C@H](C(C)C)N(C)C(=O)CCc1ccccc1)C(=O)N[C@@H](CC(N)=O)C(=O)N[C@@H](CC(=O)O)C(=O)N[C@@H](CC(C)C)c1nnn[nH]1 [PhCH2CH2CO / CH3 / CONH2 / 5-1H-t] (Hydrocinnamoyl-[NMeV]IND-X3)
3. CC[C@H](C)[C@H](NC(=O)[C@H](C(C)C)N(C)C(=O)CCC(C)C)C(=O)N[C@@H](CC(N)=O)C(=O)N[C@@H](CC(=O)O)C(=O)N[C@@H](CC(C)C)C(=O)O [(CH3)2CHCH2CH2CO / CH3 / CONH2 / COOH] ({Pentanoyl(4-Me)}-[NMeV]INDL-OH)
4. CC[C@H](C)[C@H](NC(=O)[C@H](C(C)C)N(CCc1ccccc1)C(C)=O)C(=O)N[C@@H](CC(N)=O)C(=O)N[C@@H](CC(=O)O)C(=O)N[C@@H](CC(C)C)C(=O)O [CH3CO / PhCH2CH2 / CONH2 / COOH] (Ac-[X1]INDL-OH)

Result:
6.2
3.8
7.6
17

Report IC50 for each item below.
1. CC[C@H](C)[C@H](NC(=O)[C@H](C(C)C)N(C)C(=O)CCc1ccccc1)C(=O)N[C@@H](Cc1nnn[nH]1)C(=O)N[C@@H](CC(=O)O)C(=O)N[C@@H](CC(C)C)C(=O)O [PhCH2CH2CO / CH3 / 5-1H-t / COOH] (Hydrocinnamoyl-[NMeV]I[Ala(1H-tetrazol-5-yl)]DL-OH)
2. CC[C@H](C)[C@H](NC(=O)[C@H](C(C)C)N(C)C(=O)c1ccccc1-c1ccccc1)C(=O)N[C@@H](CC(N)=O)C(=O)N[C@@H](CC(=O)O)C(=O)N[C@@H](CC(C)C)C(=O)O ({Benzoyl(2-Ph)}-[NMeV]INDL-OH)
3. CC[C@H](C)[C@H](NC(=O)[C@H](C(C)C)N(C)C(=O)c1ccccc1Cc1ccccc1)C(=O)N[C@@H](CC(N)=O)C(=O)N[C@@H](CC(=O)O)C(=O)N[C@@H](CC(C)C)C(=O)O (X2-[NMeV]INDL-OH)

Result:
1. 2
2. 2.5
3. 5.5
